- Tested on: A-375 cell line
- protocolDescription: MTT assay, melanoma A-375 cell line
- Type: cell-based, human
- measurementConditions: Homo sapiens, A-375, 48 h, read-out: IC50 against A375
pIC50: −log10 of the molar value.
metricName: pIC50

# molecule, pIC50
rows = [
    ("Cn1c(=O)c2c(nc(Oc3ccc(C(=O)/C=C/c4ccc(Cl)cc4)cc3)n2C)n(C)c1=O [Compound 4e]", 3.56),
    ("CN(Cc1cnc2nc(N)nc(N)c2n1)c1ccc(C(=O)N[C@@H](CCC(=O)O)C(=O)O)cc1 [MTX, methotrexate, reference compound]", 3.38),
    ("Cn1c(=O)c2c(nc(Oc3ccc(C(=O)/C=C/c4ccc(Cl)cc4Cl)cc3)n2C)n(C)c1=O [Compound 4b]", 3.49),
    ("Cn1c(=O)c2c(nc(Oc3ccc(C(=O)/C=C/c4ccccc4Cl)cc3)n2C)n(C)c1=O [Compound 4i]", 3.95),
    ("COc1ccccc1/C=C/C(=O)c1ccc(Oc2nc3c(c(=O)n(C)c(=O)n3C)n2C)cc1 [Compound 4c]", 3.49),
]

(I) Cc1ccc(/C=C/C(=O)c2ccc(Oc3nc4c(c(=O)n(C)c(=O)n4C)n3C)cc2)cc1 [Compound 4a]
(II) Cn1c(=O)c2c(nc(Oc3ccc(C(=O)/C=C/c4ccccc4)cc3)n2C)n(C)c1=O [Compound 4d]
(III) COC(=O)c1ccc(/C=C/C(=O)c2ccc(Oc3nc4c(c(=O)n(C)c(=O)n4C)n3C)cc2)cc1 [Compound 4k]
Qu. Please list these molecules in decreasing order of pIC50. # output: labels, in the requested order
Ans. III, II, I

(I) Cn1c(=O)c2c(nc(Oc3ccc(C(=O)/C=C/c4c(Cl)cccc4Cl)cc3)n2C)n(C)c1=O [Compound 4j]
(II) COc1ccc(/C=C/C(=O)c2ccc(Oc3nc4c(c(=O)n(C)c(=O)n4C)n3C)cc2)c(OC)c1 [Compound 4g]
Qu. Of I and II , which one carries the higher reported pIC50? Your answer should be the label of the entry you select.
Ans. I
(I: 3.70, II: 3.37)

Values from paper PMC11340408
